Please go through the items and note down their pIC50.
ASSAY_PROTOCOL: NFkB reporter suppression in cystic fibrosis bronchial cells – cell-based, uHTS hits, panel, cytotoxicity readout, dose response (AID 624344)
CONDITION_DETAILS: CF bronchial epithelial cells, PAF-induced NFkB reporter inhibition; with PAF, mean of runs
Lab note — pIC50 values are minus log10 of concentrations in M.

Please give the measured pIC50 for this molecule: `C=C1C(=O)[C@]23C[C@H]1CC[C@H]2[C@]1(C)[C@@H](OC(C)=O)CC[C@@](C)(C(=O)O)[C@H]1C[C@@H]3O`
6.03

Please give the measured pIC50 for this molecule: `COc1ccc(COc2cc(-c3cccc(OC)c3)nc3ccc(NC(=O)c4cccnc4)cc23)cc1`
5.37

Please give the measured pIC50 for this molecule: `CC1(C)Cc2c(ccc3ccccc23)C(=O)N1`
5.49

Please give the measured pIC50 for this molecule: `COc1ccc([C@]2(C(C)C)ON(c3ccccc3C(F)(F)F)C2=O)cc1`
4.95

Please give the measured pIC50 for this molecule: `CC(C)(CO)CNc1ccn2nccc2n1`
5.28
